All figures here come from ChEMBL document CHEMBL5724806.

test: The drug is tested on Roseburia intestinalis strain: DSM14610 for biotransformation under anaerobic condition. The drug concentrations were measured over 6 timepoints collected between 0 and 12 hours of incubation by liquid-chromatography-coupled mass spectrometry (LC–MS); assay type: ADME; design: dose 5 uM, timepoint 0, 1.5, 3, 6, 9, 12 hours; conditions: 5 µM
Measure name: Bacterial Biotransformation

Compound	Measure name	Readout value
CCOC(=O)[C@H](CCc1ccccc1)N[C@@H](C)C(=O)N1[C@H](C(=O)O)C[C@@H]2CCC[C@@H]21	Bacterial Biotransformation	Compound NOT metabolized
CO[C@H]1C[C@@H]2CC[C@@H](C)[C@@](O)(O2)C(=O)C(=O)N2CCCC[C@H]2C(=O)O[C@H]([C@H](C)C[C@@H]2CC[C@@H](O)[C@H](OC)C2)CC(=O)[C@H](C)/C=C(\C)[C@@H](O)[C@@H](OC)C(=O)[C@H](C)C[C@H](C)/C=C/C=C/C=C/1C [SIROLIMUS]	Bacterial Biotransformation	Compound metabolized
CC(C)NCC(O)COc1ccc(CC(N)=O)cc1 (stereo not given) [ATENOLOL]	Bacterial Biotransformation	Compound NOT metabolized
CCCC1O[C@@H]2C[C@H]3[C@@H]4CCC5=CC(=O)C=C[C@]5(C)[C@H]4[C@@H](O)C[C@]3(C)[C@]2(C(=O)CO)O1 (stereo not given in full) [BUDESONIDE]	Bacterial Biotransformation	Compound NOT metabolized
C[C@]12CCC(=O)C=C1CC[C@@H]1[C@@H]2[C@@H](O)C[C@@]2(C)[C@H]1CC[C@]2(O)C(=O)CO [HYDROCORTISONE]	Bacterial Biotransformation	Compound NOT metabolized

Consider the compound shown here: C[C@H]1C[C@@H]2[C@H]([C@@H](O)C[C@@]3(C)[C@H]2CC[C@]3(O)C(=O)CO)[C@@]2(C)C=CC(=O)C=C12 [METHYLPREDNISOLONE] What is its recorded Bacterial Biotransformation?
Compound NOT metabolized

Would you mind doing COc1ccc([C@@H]2Sc3ccccc3N(CCN(C)C)C(=O)[C@@H]2OC(C)=O)cc1 [DILTIAZEM] as well?
Compound NOT metabolized

Would you mind doing CNC(=C[N+](=O)[O-])NCCSCc1ccc(CN(C)C)o1 [RANITIDINE] as well?
Compound NOT metabolized

// query: C[C@]12CCC(=O)C=C1CC[C@@H]1[C@@H]2C(=O)C[C@@]2(C)[C@H]1CC[C@]2(O)C(=O)CO [CORTISONE]
Compound NOT metabolized

And C[C@@H](NCCCc1cccc(C(F)(F)F)c1)c1cccc2ccccc12 ?
Compound NOT metabolized

Now give it for CCOc1nc2cccc(C(=O)O)c2n1Cc1ccc(-c2ccccc2-c2nnn[nH]2)cc1 too.
Compound NOT metabolized

For NS(=O)(=O)c1cc(C(=O)O)c(NCc2ccco2)cc1Cl [FUROSEMIDE] then?
Compound NOT metabolized

Also, CCC(C)(C)C(=O)O[C@H]1C[C@@H](C)C=C2C=C[C@H](C)[C@H](CC[C@@H]3C[C@@H](O)CC(=O)O3)[C@H]21 [SIMVASTATIN] please.
Compound NOT metabolized

Ok, now CO[C@H]1C[C@@H]2CC[C@@H](C)[C@@](O)(O2)C(=O)C(=O)N2CCCC[C@H]2C(=O)O[C@H]([C@H](C)C[C@@H]2CC[C@@H](OCCO)[C@H](OC)C2)CC(=O)[C@H](C)/C=C(\C)[C@@H](O)[C@@H](OC)C(=O)[C@H](C)C[C@H](C)/C=C/C=C/C=C/1C [EVEROLIMUS]
Compound metabolized

Can you handle Cn1cnc([N+](=O)[O-])c1Sc1ncnc2nc[nH]c12 [AZATHIOPRINE] next?
Compound metabolized
